- Tested on: rabbit anti-GM1 antibodies (AbGM1)
- Format: binding
- stated-conditions: peptide at its IC50 AbGM1-1; antibody lot # 101J, dilution 1:500
Where a SMILES comes first, the peptide text is derived from it.
Please provide measured Inhibition percent at IC50 AbGM1-1: AbGM1-3 for the entries that follow.
Give bare numbers, in %.

Field: example entries. Status: answers known.
1. CC[C@H](C)[C@H](NC(=O)[C@@H](N)CCC(N)=O)C(=O)N[C@@H](CC(N)=O)C(=O)N[C@H](C(=O)N[C@@H](C)C(=O)N[C@@H](CCCCN)C(=O)N[C@@H](Cc1c[nH]c2ccccc12)C(=O)N[C@@H](Cc1c[nH]c2ccccc12)C(=O)N[C@@H](CCCCN)C(=O)N[C@H](C(=O)N[C@@H](Cc1c[nH]cn1)C(=O)N[C@@H](Cc1ccccc1)C(=O)O)[C@@H](C)O)[C@@H](C)O [PGM1-5, QINTAKWWKTHF] (H-QINTAKWWKTHF-OH): 12.1
2. CC(C)C[C@H](NC(=O)[C@H](CC(N)=O)NC(=O)[C@@H]1CCCN1C(=O)[C@H](Cc1ccccc1)NC(=O)[C@H](Cc1c[nH]c2ccccc12)NC(=O)[C@@H](NC(=O)[C@H](CCCCN)NC(=O)[C@H](Cc1c[nH]c2ccccc12)NC(=O)[C@H](CO)NC(=O)[C@@H](N)C(C)C)[C@@H](C)O)C(=O)N[C@@H](C)C(=O)N[C@H](C(=O)O)C(C)C [PGM1-1, VSWKTWFPNLAV] (H-VSWKTWFPNLAV-OH; N-terminus and C-terminus assumed): 0
3. CC(C)C[C@H](NC(=O)[C@H](CCCCN)NC(=O)[C@@H](NC(=O)[C@H](Cc1ccccc1)NC(=O)[C@H](Cc1c[nH]c2ccccc12)NC(=O)[C@H](C)NC(=O)[C@@H]1CCCN1C(=O)[C@@H](N)Cc1ccccc1)[C@@H](C)O)C(=O)N[C@@H](Cc1ccc(O)cc1)C(=O)N1CCC[C@H]1C(=O)N[C@@H](CCCNC(=N)N)C(=O)N[C@H](C(=O)O)[C@@H](C)O [PGM1-4, FPAWFTKLYPRT] (H-FPAWFTKLYPRT-OH): 12.6

## Input Print rabbit anti-GM1 antibodies (AbGM1) Inhibition percent at IC50 AbGM1-1: AbGM1-3 for CC[C@H](C)[C@H](N)C(=O)N1CCC[C@H]1C(=O)N[C@@H](CCC(N)=O)C(=O)N[C@H](C(=O)N[C@@H](Cc1c[nH]c2ccccc12)C(=O)N[C@@H](CCCNC(=N)N)C(=O)N[C@@H](CC(=O)O)C(=O)N[C@@H](Cc1c[nH]c2ccccc12)C(=O)N[C@@H](Cc1ccccc1)C(=O)N[C@@H](CCCCN)C(=O)N[C@@H](CC(C)C)C(=O)N1CCC[C@H]1C(=O)O)C(C)C [PGM1-3, IPQVWRDWFKLP] (H-IPQVWRDWFKLP-OH) .
## Output 42.5

====

- System: rabbit anti-GM1 antibodies (AbGM1)
- Type: binding
- stated-conditions: peptide at its IC50 AbGM1-1; antibody lot # 104H, dilution 1:500
Where a SMILES comes first, the peptide text is derived from it.
endpoint: Inhibition percent at IC50 AbGM1-1: AbeGM1-4 (%)
One number for each entry, in %.

1) CC(C)C[C@H](NC(=O)[C@H](CCCCN)NC(=O)[C@@H](NC(=O)[C@H](Cc1ccccc1)NC(=O)[C@H](Cc1c[nH]c2ccccc12)NC(=O)[C@H](C)NC(=O)[C@@H]1CCCN1C(=O)[C@@H](N)Cc1ccccc1)[C@@H](C)O)C(=O)N[C@@H](Cc1ccc(O)cc1)C(=O)N1CCC[C@H]1C(=O)N[C@@H](CCCNC(=N)N)C(=O)N[C@H](C(=O)O)[C@@H](C)O [PGM1-4, FPAWFTKLYPRT] (H-FPAWFTKLYPRT-OH): 33.9

// below: Inhibition percent at IC50 AbGM1-1: AbeGM1-4 requested for another compound
## Input Consider the compound CC[C@H](C)[C@H](N)C(=O)N1CCC[C@H]1C(=O)N[C@@H](CCC(N)=O)C(=O)N[C@H](C(=O)N[C@@H](Cc1c[nH]c2ccccc12)C(=O)N[C@@H](CCCNC(=N)N)C(=O)N[C@@H](CC(=O)O)C(=O)N[C@@H](Cc1c[nH]c2ccccc12)C(=O)N[C@@H](Cc1ccccc1)C(=O)N[C@@H](CCCCN)C(=O)N[C@@H](CC(C)C)C(=O)N1CCC[C@H]1C(=O)O)C(C)C [PGM1-3, IPQVWRDWFKLP] (H-IPQVWRDWFKLP-OH) . State its measured Inhibition percent at IC50 AbGM1-1: AbeGM1-4.
## Output 30.3

====

Provide the reported IC50 of each item.
- Tested on: rabbit anti-GM1 antibodies (AbGM1)
- Type: binding
- stated-conditions: Table 4; AbGM1-1 lot # 431A, dilution 1:500
Where a SMILES comes first, the peptide text is derived from it.
Give bare numbers, in nM.

1. CC[C@H](C)[C@H](NC(=O)[C@@H](N)CCC(N)=O)C(=O)N[C@@H](CC(N)=O)C(=O)N[C@H](C(=O)N[C@@H](C)C(=O)N[C@@H](CCCCN)C(=O)N[C@@H](Cc1c[nH]c2ccccc12)C(=O)N[C@@H](Cc1c[nH]c2ccccc12)C(=O)N[C@@H](CCCCN)C(=O)N[C@H](C(=O)N[C@@H](Cc1c[nH]cn1)C(=O)N[C@@H](Cc1ccccc1)C(=O)O)[C@@H](C)O)[C@@H](C)O [PGM1-5, QINTAKWWKTHF] (H-QINTAKWWKTHF-OH): 481
2. CC(C)C[C@H](NC(=O)[C@H](CC(N)=O)NC(=O)[C@@H]1CCCN1C(=O)[C@H](Cc1ccccc1)NC(=O)[C@H](Cc1c[nH]c2ccccc12)NC(=O)[C@@H](NC(=O)[C@H](CCCCN)NC(=O)[C@H](Cc1c[nH]c2ccccc12)NC(=O)[C@H](CO)NC(=O)[C@@H](N)C(C)C)[C@@H](C)O)C(=O)N[C@@H](C)C(=O)N[C@H](C(=O)O)C(C)C [PGM1-1, VSWKTWFPNLAV] (H-VSWKTWFPNLAV-OH; N-terminus and C-terminus assumed): 273
3. CC[C@H](C)[C@H](N)C(=O)N1CCC[C@H]1C(=O)N[C@@H](CCC(N)=O)C(=O)N[C@H](C(=O)N[C@@H](Cc1c[nH]c2ccccc12)C(=O)N[C@@H](CCCNC(=N)N)C(=O)N[C@@H](CC(=O)O)C(=O)N[C@@H](Cc1c[nH]c2ccccc12)C(=O)N[C@@H](Cc1ccccc1)C(=O)N[C@@H](CCCCN)C(=O)N[C@@H](CC(C)C)C(=O)N1CCC[C@H]1C(=O)O)C(C)C [PGM1-3, IPQVWRDWFKLP] (H-IPQVWRDWFKLP-OH): 75.6

Please examine the following record next.
## Input Give reported IC50 value for CC(C)C[C@H](NC(=O)[C@H](CCCCN)NC(=O)[C@@H](NC(=O)[C@H](Cc1ccccc1)NC(=O)[C@H](Cc1c[nH]c2ccccc12)NC(=O)[C@H](C)NC(=O)[C@@H]1CCCN1C(=O)[C@@H](N)Cc1ccccc1)[C@@H](C)O)C(=O)N[C@@H](Cc1ccc(O)cc1)C(=O)N1CCC[C@H]1C(=O)N[C@@H](CCCNC(=N)N)C(=O)N[C@H](C(=O)O)[C@@H](C)O [PGM1-4, FPAWFTKLYPRT] (H-FPAWFTKLYPRT-OH)
## Output 175

====

- study-target: cholera toxin B subunit (CTB); ligand fucosyl-GM1 (F-GM1) (Vibrio cholerae serotype O1)
- Format: binding
Where a SMILES comes first, the peptide text is derived from it.
endpoint: Inhibition percent at IC50 GM1: F-GM1 (%)
One number for each entry, in %.

# annotated cases, reported Inhibition percent at IC50 GM1: F-GM1 shown
1. CC(C)C[C@H](NC(=O)[C@H](CC(N)=O)NC(=O)[C@@H]1CCCN1C(=O)[C@H](Cc1ccccc1)NC(=O)[C@H](Cc1c[nH]c2ccccc12)NC(=O)[C@@H](NC(=O)[C@H](CCCCN)NC(=O)[C@H](Cc1c[nH]c2ccccc12)NC(=O)[C@H](CO)NC(=O)[C@@H](N)C(C)C)[C@@H](C)O)C(=O)N[C@@H](C)C(=O)N[C@H](C(=O)O)C(C)C [PGM1-1, VSWKTWFPNLAV] (H-VSWKTWFPNLAV-OH; N-terminus and C-terminus assumed): 45.8
2. CC[C@H](C)[C@H](NC(=O)[C@@H](N)CCC(N)=O)C(=O)N[C@@H](CC(N)=O)C(=O)N[C@H](C(=O)N[C@@H](C)C(=O)N[C@@H](CCCCN)C(=O)N[C@@H](Cc1c[nH]c2ccccc12)C(=O)N[C@@H](Cc1c[nH]c2ccccc12)C(=O)N[C@@H](CCCCN)C(=O)N[C@H](C(=O)N[C@@H](Cc1c[nH]cn1)C(=O)N[C@@H](Cc1ccccc1)C(=O)O)[C@@H](C)O)[C@@H](C)O [PGM1-5, QINTAKWWKTHF] (H-QINTAKWWKTHF-OH): 52.1
3. CC(C)C[C@H](NC(=O)[C@H](CCCCN)NC(=O)[C@@H](NC(=O)[C@H](Cc1ccccc1)NC(=O)[C@H](Cc1c[nH]c2ccccc12)NC(=O)[C@H](C)NC(=O)[C@@H]1CCCN1C(=O)[C@@H](N)Cc1ccccc1)[C@@H](C)O)C(=O)N[C@@H](Cc1ccc(O)cc1)C(=O)N1CCC[C@H]1C(=O)N[C@@H](CCCNC(=N)N)C(=O)N[C@H](C(=O)O)[C@@H](C)O [PGM1-4, FPAWFTKLYPRT] (H-FPAWFTKLYPRT-OH): 62.1
4. CC[C@H](C)[C@H](N)C(=O)N1CCC[C@H]1C(=O)N[C@@H](CCC(N)=O)C(=O)N[C@H](C(=O)N[C@@H](Cc1c[nH]c2ccccc12)C(=O)N[C@@H](CCCNC(=N)N)C(=O)N[C@@H](CC(=O)O)C(=O)N[C@@H](Cc1c[nH]c2ccccc12)C(=O)N[C@@H](Cc1ccccc1)C(=O)N[C@@H](CCCCN)C(=O)N[C@@H](CC(C)C)C(=O)N1CCC[C@H]1C(=O)O)C(C)C [PGM1-3, IPQVWRDWFKLP] (H-IPQVWRDWFKLP-OH): 43.9

Please examine the following record next.
## Input Report measured Inhibition percent at IC50 GM1: F-GM1; entry is CSCC[C@H](NC(=O)[C@H](CO)NC(=O)[C@@H]1CCCN1C(=O)[C@H](Cc1ccccc1)NC(=O)[C@H](Cc1c[nH]c2ccccc12)NC(=O)[C@H](CCCCN)NC(=O)[C@H](Cc1c[nH]cn1)NC(=O)[C@H](Cc1ccccc1)NC(=O)[C@@H]1CCCN1C(=O)[C@H](CO)NC(=O)[C@@H](N)Cc1ccc(O)cc1)C(=O)N[C@@H](Cc1c[nH]cn1)C(=O)O [PGM1-2, YSPFHKWFPSMH] (H-YSPFHKWFPSMH-OH; N-terminus and C-terminus assumed)
## Output 52.1
